# reported growth; entries follow
System: T-47D breast
test.summary: NCI-60 one-dose screen, 48 h (100 = growth as untreated, 0 = no growth, -100 = all killed)
experimental.parameters: 10 µM unless noted
Compounds without any hit were thinned out: in the full panel of roughly 83,000, 20% have a hit. The source made the active and inactive calls. How the source made its calls: active means growth percent below 10; inactive means the rest.

INSERT INTO measurements (compound, result) VALUES
  ('c1cc(CNC23CC4CC(CC(C4)C2)C3)cc(C[N+](Cc2cccc(CNC34CC5CC(CC(C5)C3)C4)c2)(Cc2cccc(CNC34CC5CC(CC(C5)C3)C4)c2)Cc2cccc(CNC34CC5CC(CC(C5)C3)C4)c2)c1 (stereo not given)', '24% [42 µM] (inactive)');

Q: State its growth for this compound: CCOC(=O)NC(Cc1ccccc1)c1ccccc1 (stereo not given)
Ans: 99.6% (inactive)

Q: State its growth for this compound: "C=C(C)[C@@H]1CCC=C2CC[C@]3(C)[C@H](CC[C@@H]4[C@@]5(C)CCCNC(C)(C)[C@@H]5CC[C@]43C)[C@H]21"
Ans: 60.2% (inactive)

Q: State its growth for this compound: "CCC1=C[C@H]2CN(CCc3c([nH]c4ccccc34)[C@@](C(=O)OC)(c3cc4c(cc3OC)N(C)[C@H]3[C@@](O)(C(=O)OC)[C@H](OC(C)=O)[C@]5(CC)[C@@H]6C[C@@H]6CN6CC[C@]43[C@@H]65)C2)C1"
Ans: 70% (inactive)

Q: State its growth for this compound: "CNCc1cccc2c1OCCOCCOCCN(CCN1CCOCC1)S(=O)(=O)c1ccc(cc1)-c1cnc(N)c(n1)C(=O)N2"
Ans: 101% (inactive)

* * *

Test system: LOX IMVI melanoma
test.summary: NCI-60 one-dose screen, 48 h (100 = growth as untreated, 0 = no growth, -100 = all killed)
experimental.parameters: 10 µM unless noted
The panel holds about 83,000 compounds, 20% with a hit somewhere; the sample as a whole holds those more often.
Output Met for records whose growth is lower than 90%, Not met for records at or above 90%.

Some entries whose results are on file:
INSERT INTO measurements (compound, measurement_target, answer_label) VALUES
  ('Cc1c(Cl)cccc1NC(=O)c1sc2nc3c(cc2c1N)CN(Cc1ccccc1)CC3', 'LOX IMVI melanoma', 'Met'),
  ('N#Cc1c(-c2ccc(F)cc2)nc(N/N=C/c2c[nH]c3ccccc23)nc1N1CCOCC1', 'LOX IMVI melanoma', 'Met'),
  ('COc1ccc(-c2cc(-c3nnc(SCC(=O)Nc4ccc(/C(C)=N\O)cc4)n3-c3ccccc3)c3cc(OC)ccc3n2)cc1', 'LOX IMVI melanoma', 'Met');

Q: Is growth strictly under 90% for the entry "Cc1ccc(C(=O)O)o1" ?
Ans: Not met

Q: Is growth strictly under 90% for the entry "COc1ccc2cc(/C=C3\N=C(c4cc(OC)c(OC)c(OC)c4)OC3=O)c(OC)nc2c1" ?
Ans: Not met

Q: Is growth strictly under 90% for the entry "C=C1C(=O)O[C@H]2[C@H]1CC/C(C=Nc1c(N)cc(F)cc1Br)=C\CC[C@@]1(C)O[C@@H]21" ?
Ans: Met

Q: Is growth strictly under 90% for the entry "Nc1c(C(=O)Nc2ccccn2)sc2nc3c(cc12)C(=O)CCC3" ?
Ans: Met

Q: Is growth strictly under 90% for the entry "COc1ccc(C(=S)c2cc(OC)c(OC)c(OC)c2)cc1OC(=O)CCl" ?
Ans: Met

Q: Is growth strictly under 90% for the entry "O=C(Nc1nc(-c2ccccc2)cs1)c1cc(-c2ccc(Br)cc2)nc2ccccc12" ?
Ans: Met
